Biological target: T1, recombinant human IL-13 (human, UniProt P35225 35-146)
T1 construct: also called rh-IL-13; hIL-13
T1 sequence (P35225 35-146 limits assumed): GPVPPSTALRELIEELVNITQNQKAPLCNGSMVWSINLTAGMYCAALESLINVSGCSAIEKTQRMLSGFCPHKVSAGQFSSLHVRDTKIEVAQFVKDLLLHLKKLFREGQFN
Test: SPR

binder | koff / s⁻¹
BDG38.115 (antibody, V domains shown, IgG1) VH: QMQLVESGGGVVQPGRSLTLSCAASGFEFRTYGMHWVRQAPGKGLEWLGVIWYDGSNTHYADSVKGRFTITRDNSKNTLNLQMNSLRAEDTAVYYCVRAPQWYLTAEAFDLWGQGTMVTVSS VL: SYILTQPPSVSVAPGQTATITCGGNLIGARLVHWYQQKPGQAPVLVIYDDSDRPSRIPERFSGSNSGNTATLTISDVEEGDEADYYCQVWDYSSNTYVFGGGTKLTVL | 0.000455

Hey, just so you know, these numbers are from patent US20240059769A1.
